We begin with a simple list: items and their reported inhibition.
experiment: VP16 transactivation reporter inhibitors, counter-screen for LRH-1 inverse agonist project, cell-based, luminescence, high throughput (AID 651615); conditions: Gal4-VP16 luciferase reporter cells, at 3.6 µM, stronger effect = higher value
Give the value, in units of %, as a plain number.

MOLECULE	inhibition / %
O=[N+]([O-])c1ccc(-n2cnc3ccccc32)c([N+](=O)[O-])c1	9.79
CC12CCC(=O)N1c1c(sc3nc(N4CCOCC4)c4c(c13)CCCC4)C(=O)N2 (stereo unspecified)	-1.67
NC(=S)N/N=C/c1ccc(-n2nncc2-c2ccc(Cl)cc2)cc1	6.68
CC(Nc1ncnc2ccccc12)c1ccccc1 (stereo unspecified)	53.7
CC(C)=CC(O)C/C(C)=C/COc1ccc2ccc(=O)oc2c1 (stereo unspecified)	-10.8
Cc1c(Cl)cccc1NC(=O)CS(=O)(=O)c1ccccc1	-1.09
CCCCNC(=O)COC(=O)c1c2c(nc3ccccc13)/C(=C/c1cccs1)CC2	37.3
C=CCn1c(C)cc(C2=NNC(=NCC)SC2)c1C	75.6

Need inhibition, item Cc1nn(Cc2ccc(Cl)cc2)c(C)c1NC(=O)c1ccc([N+](=O)[O-])cc1
-3.45

Need inhibition, item CCOC(=O)c1cc(-c2ccncc2)nc2c1c(C)nn2-c1ccccn1
13.1

Need inhibition, item O=C(N/N=C/c1ccc([N+](=O)[O-])o1)c1ccccc1-n1cccc1
0.97
